test system: CYPSE (Flatsedge); assay: Preemergence weed control under flooded paddy conditions; type: in vivo, Cyperus serotinus; settings: 0.2500 kg/ha, rated 3-4 weeks after treatment
READOUT NAME: CYPSE herbicidal effect rating
Keep it simple and answer with nothing but the number.

[[record]]
molecule = "C=CCOC(=O)CC1SC(=Nc2cc(-n3c(=O)cc(C(F)(F)F)n(C)c3=O)c(F)cc2Cl)N(CC=C)C1=O (stereo not shown) [Compound 65]"
measured_result = 0.0

[[record]]
molecule = "C=CCN1C(=O)C(CC(=O)NC)SC1=Nc1cc(-n2c(=O)cc(C(F)(F)F)n(C)c2=O)c(F)cc1Cl (stereo not shown) [Compound 84]"
measured_result = 9.0

[[record]]
molecule = "CCOC(=O)CN1C(=O)C(CC(=O)NOC)SC1=Nc1cc(-n2c(=O)cc(C(F)(F)F)n(C)c2=O)c(F)cc1Cl (stereo not shown) [Compound 83]"
measured_result = 5.0

[[record]]
molecule = "C=CCN1C(=O)C(CC(=O)NS(=O)(=O)c2ccccc2)SC1=Nc1cc(-n2c(=O)cc(C(F)(F)F)n(C)c2=O)c(F)cc1Cl (stereo not shown) [Compound 101]"
measured_result = 0.0

[[record]]
molecule = "CN1C(=O)C(CC(=O)O)SC1=Nc1cc(-n2c(=O)cc(C(F)(F)F)n(C)c2=O)c(F)cc1Cl (stereo not shown) [Compound 63]"
measured_result = 0.0


Fill blank: measured CYPSE herbicidal effect rating of the molecule C#CCOC(=O)CC1SC(=Nc2cc(-n3c(=O)cc(C(F)(F)F)n(C)c3=O)c(F)cc2Cl)N(C)C1=O (stereo not shown) [Compound 90] is ____. 3.0

Fill blank: measured CYPSE herbicidal effect rating of the molecule C#CCOC(=O)CC1SC(=Nc2cc(-n3c(=O)cc(C(F)(F)F)n(C)c3=O)c(F)cc2Cl)N(CC=C)C1=O (stereo not shown) [Compound 67] is ____. 3.0

Fill blank: measured CYPSE herbicidal effect rating of the molecule CN1C(=O)C(CC(=O)OCCF)SC1=Nc1cc(-n2c(=O)cc(C(F)(F)F)n(C)c2=O)c(F)cc1Cl (stereo not shown) [Compound 93] is ____. 9.0

Fill blank: measured CYPSE herbicidal effect rating of the molecule CN1C(=O)C(CC(=O)NS(=O)(=O)c2ccccc2)SC1=Nc1cc(-n2c(=O)cc(C(F)(F)F)n(C)c2=O)c(F)cc1Cl (stereo not shown) [Compound 102] is ____. 0.0

Fill blank: measured CYPSE herbicidal effect rating of the molecule CN1C(=O)C(CC(=O)Nc2ccccc2)SC1=Nc1cc(-n2c(=O)cc(C(F)(F)F)n(C)c2=O)c(F)cc1Cl (stereo not shown) [Compound 91] is ____. 0.0

====

As shown below, each of these compounds has a reported herbicidal effect rating, MOOVA value.
tested on: MOOVA (Monochoria); assay: Preemergence weed control under flooded paddy conditions; format: in vivo, Monochoria vaginalis; conditions: 0.0313 kg/ha, rated 3-4 weeks after treatment
Keep it simple and answer with nothing but the number.

Known results for compounds:
[[record]]
compound = "CN(C)c1ccc(CN2C(=O)CSC2=Nc2cc(-n3c(=O)cc(C(F)(F)F)n(C)c3=O)c(F)cc2Cl)cc1 [Compound 138]"
target_under_test = "MOOVA (Monochoria)"
readout_name = "herbicidal effect rating, MOOVA"
measured_result = 5.0

[[record]]
compound = "COCCCN1C(=O)CSC1=Nc1cc(-n2c(=O)cc(C(F)(F)F)n(C)c2=O)c(F)cc1Cl [Compound 172]"
target_under_test = "MOOVA (Monochoria)"
readout_name = "herbicidal effect rating, MOOVA"
measured_result = 9.0

[[record]]
compound = "Cn1c(C(F)(F)F)cc(=O)n(-c2cc(N=C3SCC(=O)N3Cc3cccnc3)c(Cl)cc2F)c1=O [Compound 132]"
target_under_test = "MOOVA (Monochoria)"
readout_name = "herbicidal effect rating, MOOVA"
measured_result = 6.0


Then there is this compound:
Fill blank: measured herbicidal effect rating, MOOVA of the compound CCOC(=O)CN1C(=O)C(CC(=O)O)SC1=Nc1cc(N2C(=O)CC(C(F)(F)F)CC2=O)c(F)cc1Cl (stereo not shown) [Compound 170] is ____. 9.0

====

system: CASOB (Sicklepod); experiment: Preemergence herbicidal evaluation; format: in vivo, Cassia obtusifolia; settings: preemergence, 0.0313 kg/ha, rated 4-5 weeks after treatment, 0-9 scale
As shown below, each of these molecules has a reported CASOB rating value.

[[record]]
molecule = "CCOC(=O)CN1C(=O)C(CC(=O)NO)S/C1=N/c1cc(-n2c(=O)cc(C(F)(F)F)n(C)c2=O)c(F)cc1Cl (centres unmarked)"
readout_name = "CASOB rating"
measured_result = 0.0


Fill blank: measured CASOB rating of the molecule C#CCOC(=O)CC1SC(=Nc2cc(-n3c(=O)cc(C(F)(F)F)n(C)c3=O)c(F)cc2Cl)N(C)C1=O (centres unmarked) is ____. 3.0

Fill blank: measured CASOB rating of the molecule C=CCN1C(=O)C(CC(=O)NC)SC1=Nc1cc(-n2c(=O)cc(C(F)(F)F)n(C)c2=O)c(F)cc1Cl (centres unmarked) is ____. 0.0

Fill blank: measured CASOB rating of the molecule C=CCN1C(=O)C(CC(=O)OCCF)SC1=Nc1cc(-n2c(=O)cc(C(F)(F)F)n(C)c2=O)c(F)cc1Cl (centres unmarked) is ____. 0.0

Fill blank: measured CASOB rating of the molecule C=CCN1C(=O)C(CC(=O)NS(C)(=O)=O)SC1=Nc1cc(-n2c(=O)cc(C(F)(F)F)n(C)c2=O)c(F)cc1Cl (centres unmarked) is ____. 0.0

====

system: TRZAWR (Wheat, Winter, cv Riband); experiment: Postemergence herbicidal evaluation; format: in vivo, Triticum aestivum; conditions: Rate 0.0630 kg/ha
READOUT NAME: Postemergence herbicidal rating TRZAWR
Keep it simple and answer with nothing but the number.

[[record]]
molecule = "Cn1c(C(F)(F)F)cc(=O)n(-c2cc(N=C3SCC(=O)N3CC(=O)OC(C)(C)C)c(Cl)cc2F)c1=O"
measured_result = 4.0

[[record]]
molecule = "C=CCN1C(=O)C(CC(=O)OC)SC1=Nc1cc(-n2c(=O)cc(C(F)(F)F)n(C)c2=O)c(F)cc1Cl (stereo not drawn)"
measured_result = 7.0

[[record]]
molecule = "Cn1c(C(F)(F)F)cc(=O)n(-c2cc(/N=C3/SC(CC(=O)O)C(=O)N3CC(=O)O)c(Cl)cc2F)c1=O (stereo not drawn)"
measured_result = 1.5

[[record]]
molecule = "CCOC(=O)CN1C(=O)C(CC(N)=O)S/C1=N/c1cc(-n2c(=O)cc(C(F)(F)F)n(C)c2=O)c(F)cc1Cl (stereo not drawn)"
measured_result = 5.0

[[record]]
molecule = "CCOC(=O)CN1C(=O)C(CC(=O)O)SC1=Nc1cc(-n2c(=O)cc(C(F)(F)F)n(C)c2=O)c(Cl)cc1Cl (stereo not drawn)"
measured_result = 6.0


Fill blank: measured Postemergence herbicidal rating TRZAWR of the molecule C[C@@H](C(=O)O)N1C(=O)CS/C1=N/c1cc(-n2c(=O)cc(C(F)(F)F)n(C)c2=O)c(F)cc1Cl is ____. 7.0

====

tested on: SAGPY (Arrowhead (Pygmaea)); test: Preemergence weed control under flooded paddy conditions; type: in vivo, Sagittaria pygmaea; conditions: 0.0313 kg/ha, rated 3-4 weeks after treatment
As shown below, each of these compounds has a reported SAGPY herbicidal effect rating value.
Keep it simple and answer with nothing but the number.

Known results for compounds:
[[record]]
compound = "C=CCN1C(=O)C(CC(=O)OCCF)SC1=Nc1cc(-n2c(=O)cc(C(F)(F)F)n(C)c2=O)c(F)cc1Cl (centres unmarked) [Compound 86]"
readout_name = "SAGPY herbicidal effect rating"
measured_result = 5.0

[[record]]
compound = "C=CCN1C(=O)C(CC(=O)NS(=O)(=O)c2ccccc2)SC1=Nc1cc(-n2c(=O)cc(C(F)(F)F)n(C)c2=O)c(F)cc1Cl (centres unmarked) [Compound 101]"
readout_name = "SAGPY herbicidal effect rating"
measured_result = 0.0

[[record]]
compound = "C[C@H](C(=O)O)N1C(=O)CSC1=Nc1cc(-n2c(=O)cc(C(F)(F)F)n(C)c2=O)c(F)cc1Cl [Compound 70]"
readout_name = "SAGPY herbicidal effect rating"
measured_result = 4.0

[[record]]
compound = "COC(=O)[C@@H](Cc1ccccc1)N1C(=O)CSC1=Nc1cc(-n2c(=O)cc(C(F)(F)F)n(C)c2=O)c(F)cc1Cl [Compound 74]"
readout_name = "SAGPY herbicidal effect rating"
measured_result = 3.0

[[record]]
compound = "CN1C(=O)C(CC(=O)O)SC1=Nc1cc(-n2c(=O)cc(C(F)(F)F)n(C)c2=O)c(F)cc1Cl (centres unmarked) [Compound 63]"
readout_name = "SAGPY herbicidal effect rating"
measured_result = 4.0


Fill blank: measured SAGPY herbicidal effect rating of the compound CCOC(=O)CN1C(=O)C(CC(=O)Nc2ccccc2)SC1=Nc1cc(-n2c(=O)cc(C(F)(F)F)n(C)c2=O)c(F)cc1Cl (centres unmarked) [Compound 68] is ____. 0.0

Fill blank: measured SAGPY herbicidal effect rating of the compound C=CCN1C(=O)C(CC(=O)NC)SC1=Nc1cc(-n2c(=O)cc(C(F)(F)F)n(C)c2=O)c(F)cc1Cl (centres unmarked) [Compound 84] is ____. 2.0

Fill blank: measured SAGPY herbicidal effect rating of the compound CC(C)OC(=O)CC1SC(=Nc2cc(-n3c(=O)cc(C(F)(F)F)n(C)c3=O)c(F)cc2Cl)N(C)C1=O (centres unmarked) [Compound 89] is ____. 4.0
